The reported measurements were obtained from patent US20200207759A1.

# Ki per entry
- ASSAYED TARGET: Human α2δ-1 subunit of Cav2.2 calcium channel (Homo sapiens, UniProt P54289)
- Sequence (P54289 25-1103): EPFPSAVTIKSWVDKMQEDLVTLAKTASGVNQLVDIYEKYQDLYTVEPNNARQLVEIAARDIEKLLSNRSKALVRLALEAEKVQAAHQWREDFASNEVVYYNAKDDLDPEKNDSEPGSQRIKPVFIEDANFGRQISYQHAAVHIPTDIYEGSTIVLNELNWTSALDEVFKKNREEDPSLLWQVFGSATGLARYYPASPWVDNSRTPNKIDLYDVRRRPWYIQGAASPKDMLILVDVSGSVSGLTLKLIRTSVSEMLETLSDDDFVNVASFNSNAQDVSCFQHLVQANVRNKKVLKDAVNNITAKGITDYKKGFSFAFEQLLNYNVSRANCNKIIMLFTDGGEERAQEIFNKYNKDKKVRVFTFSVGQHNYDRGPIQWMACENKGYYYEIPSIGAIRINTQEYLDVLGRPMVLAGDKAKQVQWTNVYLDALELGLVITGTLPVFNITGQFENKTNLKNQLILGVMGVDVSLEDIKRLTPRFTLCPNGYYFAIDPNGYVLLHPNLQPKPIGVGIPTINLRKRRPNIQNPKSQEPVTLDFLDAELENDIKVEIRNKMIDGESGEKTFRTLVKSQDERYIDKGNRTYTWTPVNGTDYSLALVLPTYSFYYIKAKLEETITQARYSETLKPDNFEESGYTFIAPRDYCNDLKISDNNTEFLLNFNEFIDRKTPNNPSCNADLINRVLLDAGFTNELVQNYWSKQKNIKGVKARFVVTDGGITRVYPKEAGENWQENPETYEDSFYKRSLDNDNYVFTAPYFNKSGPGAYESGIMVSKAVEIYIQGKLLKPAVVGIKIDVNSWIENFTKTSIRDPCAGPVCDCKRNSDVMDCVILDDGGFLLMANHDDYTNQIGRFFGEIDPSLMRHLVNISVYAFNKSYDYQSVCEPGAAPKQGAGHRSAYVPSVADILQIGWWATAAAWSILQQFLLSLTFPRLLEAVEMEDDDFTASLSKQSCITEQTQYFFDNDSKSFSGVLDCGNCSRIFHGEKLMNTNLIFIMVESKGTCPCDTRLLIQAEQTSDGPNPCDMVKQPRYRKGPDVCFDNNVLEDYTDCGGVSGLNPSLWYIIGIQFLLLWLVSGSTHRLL
- ASSAY EXPLANATION: Binding assay to human α2δ-1 subunit of Cav2.2 calcium channel, [3H]-Gabapentin
- REPORTED CONDITIONS: human α2δ-1 enriched membranes, 15 nM [3H]-Gabapentin; read-out: Ki (nM) alpha2delta Hum

{"columns": ["MOLECULE", "Ki"],
 "data": [
  ["CNCC[C@@H](c1cc(C)cs1)N1CCc2ncccc21 [Example 57]", "500 to 3000 nM"],
  ["CNCC[C@@H](c1ccsc1)N1CCc2ncc(C)cc21 [Example 102]", "500 to 3000 nM"],
  ["CNCCC(c1cccs1)N1CCc2c(F)cc(F)cc21 (stereo not shown) [Example 68]", "500 to 3000 nM"],
  ["CNCC[C@@H](c1cccs1)N1CC(C)(C)c2nc(C)ccc21 [Example 35]", "100 to 500 nM"],
  ["CNCC[C@H](c1ccsc1)N1CC(C)(C)c2ncc(C)cc21 [Example 60]", "100 to 500 nM"],
  ["CCc1cnc2c(c1)N([C@H](CCNC)c1cccs1)CC2 [Example 32]", "100 to 500 nM"],
  ["CNCCC(c1cccs1)N1CC(C)(C)c2ncc(Cl)cc21 (stereo not shown) [Example 73]", "100 to 500 nM"],
  ["CNCC[C@@H](c1cccs1)N1CCc2ncc(OC)cc21 [Example 31]", "≥ 3000 nM"],
  ["CCNCCC(c1cccs1)N1CC(C)(C)c2ncc(C#N)cc21 (stereo not shown) [Example 101]", "< 100 nM"],
  ["CNCCC(c1ccsc1)N1CC(C)(C)c2ncc(F)cc21 (stereo not shown) [Example 65]", "< 100 nM"]
]}

* * *

- ASSAYED TARGET: Human norepinephrine transporter (NET) (Homo sapiens, UniProt P23975)
- Sequence (P23975 whole entry): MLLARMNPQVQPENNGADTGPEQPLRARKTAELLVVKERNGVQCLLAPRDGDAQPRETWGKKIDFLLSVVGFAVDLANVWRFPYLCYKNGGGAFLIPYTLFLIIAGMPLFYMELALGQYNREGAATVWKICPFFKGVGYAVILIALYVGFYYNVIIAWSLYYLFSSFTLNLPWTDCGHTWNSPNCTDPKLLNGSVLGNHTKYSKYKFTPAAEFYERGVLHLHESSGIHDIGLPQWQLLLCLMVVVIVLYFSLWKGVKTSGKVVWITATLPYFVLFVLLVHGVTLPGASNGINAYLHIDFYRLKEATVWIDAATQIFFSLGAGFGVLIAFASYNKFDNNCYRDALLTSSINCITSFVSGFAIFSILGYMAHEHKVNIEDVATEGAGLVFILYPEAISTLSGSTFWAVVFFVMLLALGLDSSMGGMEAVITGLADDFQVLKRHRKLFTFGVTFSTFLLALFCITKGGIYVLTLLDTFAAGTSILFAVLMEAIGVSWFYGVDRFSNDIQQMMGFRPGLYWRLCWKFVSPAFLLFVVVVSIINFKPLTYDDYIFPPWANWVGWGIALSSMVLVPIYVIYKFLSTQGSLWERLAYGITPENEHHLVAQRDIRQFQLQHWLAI
- ASSAY EXPLANATION: Binding assay to human norepinephrine transporter (NET), [3H]-Nisoxetin
- REPORTED CONDITIONS: human NET enriched membranes, 5 nM [3H]-Nisoxetin; read-out: Ki (nM) NET Hum
- Protocol: Binding Assay to Human Norepinephrine Transporter (NET). Human norepinephrine transporter (NET) enriched membranes (5 μg) were incubated with 5 nM of radiolabeled [3H]-Nisoxetin in assay buffer containing 50 mM Tris-HCl, 120 mM NaCl, 5 mM KCl, pH 7.4. NSB (non specific binding) was measured by adding 1 μM. […] Filter plates were dried at 60° C. for 1 hour and 30 μl of scintillation cocktail were added to each well before radioactivity reading.

{"columns": ["COMPOUND", "Ki"],
 "data": [
  ["CNCC[C@H](c1cccs1)N1CCc2nc(C(C)C)ccc21 [Example 48]", "> 1000 nM"],
  ["CNCCC(c1ccsc1)N1CC(C)(C)c2ncccc21 (stereo not shown) [Example 13]", "500 to 1000 nM"],
  ["CNCC[C@@H](c1ccc(F)s1)N1CCc2ncccc21 [Example 19]", "500 to 1000 nM"],
  ["CNCC[C@@H](c1sccc1Cl)N1CCc2ncccc21 [Example 37]", "100 to 500 nM"],
  ["CNCCC(c1cccs1)N1CCc2c(OC)cccc21 (stereo not shown) [Example 69]", "< 100 nM"],
  ["CNCC[C@@H](c1cccs1)N1CCc2ncc(F)cc21 [Example 27]", "> 1000 nM"],
  ["CNCC[C@@H](c1cccs1)N1CC(C)(C)c2ncccc21 [Example 21]", "100 to 500 nM"]
]}
